Attribution: ChEMBL document CHEMBL1201862

Tested on: IGROV-1
Assay: NCI tumour cell line growth inhibition, 48 h
Activity calls are given as the source filed them. Cut-off read from the data, not from the text of the source: active = GI50 up to about 1.1 µM and inactive = higher.
Possible outcomes: y for active, n for inactive

molecule | qualitative-label
CCOC(=O)/C(C(C)=O)=C(\OC(C)=O)c1ccncc1C(=O)O | n
Cc1ccc(S(=O)(=O)N(C=O)N=C2CCN(Cc3ccccc3)CC2)cc1 | n
O=[PH](O)c1cccnc1 | n
N#C/C=C1\C=CC(O)C(O)C1OC1OC(CO)C(O)C(O)C1O (centres undefined) | n
O/N=C1\CSc2ccccc2C1 | n
CSCCC(NC(=O)OCc1ccccc1)P(=O)(O)c1ccccc1 (centres undefined) | n
C=CCC12CC(=O)C=C1CCC1(C2)OCCO1 (centres undefined) | n
CN(C)CCOc1ccc(-c2c(Oc3ccc(Cl)cc3)c(=O)oc3ccccc23)cc1 | n
O=c1ccn(C2OC(CO)C(O)C2F)c(=O)n1Cc1ccccc1 (centres undefined) | n
COC(=O)C12OCC34C(CC5C(C)C6=CC(=O)OC6=CC5(C)C3C(O)C1O)OC(=O)C(OC(C)=O)C24 (centres undefined) | n
CCC(=O)NC(NNS(=O)(=O)c1ccc(C)cc1)(C(F)(F)F)C(F)(F)F | n
CN1C2(c3ccccc3)C(C(=O)c3ccccc3)=C(C(=O)c3ccccc3)C1(c1ccccc1)c1c(-c3ccccc3)sc(-c3ccccc3)c12 | n
CN(C)c1ccc(C(c2ccc(N(C)C)cc2)c2ccc([N+](=O)[O-])cc2)cc1 | n
C/C(=N\NC(=O)CC(=O)N(C(=O)c1ccc(Cl)cc1)c1ccc(C)cc1)c1ccccc1O | n
CC1(C)Oc2ccc3c(=O)c4ccccc4oc3c2C1C(=O)O (centres undefined) | n
CC(C)SC(NC(=O)C1C(C)(C)CCC1(C)C)C(=O)O (centres undefined) | n
COc1c(-c2ccc3c(c2)OCO3)oc2cc3c(c(OC)c2c1=O)OCO3 [MELITERNATIN] | n
COC1CC(Br)(C#N)C1 (centres undefined) | n
Cc1nc2cccc([N+](=O)[O-])c2n1CCCN(C)C | n
O=S(=O)(N/C(=N\O)Nc1ccc(Cl)cc1)c1cc(C(F)(F)F)cc(C(F)(F)F)c1 | n
O=c1c(-c2ccccc2)c2oc(c1-c1ccccc1)CS(=O)(=O)CCC2 | n
O=C(Nc1ccccc1)OCCN=C1c2ccccc2C(Br)C(Br)c2ccccc21 (centres undefined) | n
O=C(NCCCCN(CCCNC(=O)C(F)(F)F)Cc1ccc2ccccc2c1)C(F)(F)F | n
COc1cc2c(=O)cnoc2cc1O | n
COc1cccc(/C=N/NC(N)=O)c1O | n
O=C(c1cc(Br)ccc1O)c1cc(Br)ccc1O | n
COc1c(-c2nc3ccc(N4CCN(C)CC4)nc3[nH]2)cc(OC)c2[nH]c(COC(C)=O)nc12 | n
O=P1(N(CCCl)CCCl)NCCCO1 (centres undefined) [CYCLOPHOSPHAMIDE ANHYDROUS] | n
CCOC(=O)/C(=C\NC(C)(C)C)c1nc2ccccc2o1 | n
O=S(O)CCCCSSCCCCSSCCCCS(=O)O | n
CCCCOC(=O)C1C2CCC(O2)C1C(=O)OCCCC (centres undefined) | n
O=C1CC2(CCCc3sccc32)C(=O)N1 (centres undefined) | n
CSc1nc(Br)nc2c1ncn2C1CC(Oc2ccc(C)cc2)C(COc2ccc(C)cc2)O1 (centres undefined) | n
NC1=NC(=O)[C@H](CSCc2ccccc2)N1C(=O)OCc1ccccc1 | n
Cc1cccc2nc3cc(O)cc(O)c3c(O)c12 | n
C/C=C/COc1cc(NC(=S)OC(C)C)ccc1Cl.C/C=C\COc1cc(NC(=S)OC(C)C)ccc1Cl | n
Cc1ccc(C#CS(=O)(=O)C(F)(F)F)cc1 | n
COc1ccc2[nH]c3c(C)c4ccncc4c(C)c3c2c1 | y
Nc1ncnc2nc(N3CCN(CCO)CC3)[nH]c12 | n
CN(C)CC1CCC/C(=C\c2ccc(Cl)c(Cl)c2)C1=O (centres undefined) | n
Nc1nc2c(-c3ccc([N+](=O)[O-])cc3)nnn2c2ccccc12 | n
C/C(=N\Nc1nc2ccccc2s1)c1ccncn1 | y
COC(=O)c1c2c(cc3c1CC1(Cc4cc5c(c(C(C)=O)c4C1)CCC5)C3)CCC2 (centres undefined) | n
C=C1C(=O)C23[C@H](O)C1CC[C@H]2[C@]12COC3(O)[C@@H](O)[C@@H]1C(C)(C)CC[C@@H]2O | n
